Every entry's value here was drawn from ChEMBL document CHEMBL3621118.

# System: A2780
# method-notes: Inhibition of PBS-induced autophagy in human A2780 cells assessed as decrease in LC3-2 level at 50 to 100 uM preincubated for 1 hr followed by PBS induction measured after 3 hrs by Western blot analysis
# Type: functional, cell-based
The source made the active and inactive calls. The calls are words filed in the database; no cut-off is given here.
Could you please pick one outcome from this set? t (active), f (inactive)

Worked set:
O=C(CNC(=O)c1ccc(Cl)cc1Cl)OCC(=O)c1ccc(Br)cc1	f
O=C(NCCCOc1ccccc1)c1cccc2ccccc12	t
COc1ccc(NC(=O)C(=O)NCCN2CCN(C(=O)c3ccc(Cl)cc3Cl)CC2)cc1	f
O=C(NCCCCc1ccccc1)c1ccccc1F	t
Cc1cccc(CS(=O)(=O)NCc2ccc(N3CCCC3)cc2)c1	t

Called result for O=C(NCCCc1ccccc1)c1ccccc1
f

Recorded call for O=C(NCCCCc1ccccc1)c1cccc(Br)c1 ?
f

Short answer needed: outcome of this test for O=C(NCCCCc1ccccc1)c1ccc(Br)cc1 ?
f

Per the records of this test, what outcome belongs to O=C(NC1CCN(Cc2ccccc2)CC1)c1ccc(Cl)cc1Cl ?
f

Which result was noted for this compound in the test: O=C(NCCCCc1ccccc1)c1ccccc1Br
f

Assay result, entry Cc1ccc(OCC(=O)Nc2ccc(N3CCN(C(=O)c4ccco4)CC3)cc2)cc1 — outcome?
t
